List of pIC50 values.
# target-entity: Dihydrofolate reductase (Staphylococcus aureus)
# Sequence (P0A017 whole entry): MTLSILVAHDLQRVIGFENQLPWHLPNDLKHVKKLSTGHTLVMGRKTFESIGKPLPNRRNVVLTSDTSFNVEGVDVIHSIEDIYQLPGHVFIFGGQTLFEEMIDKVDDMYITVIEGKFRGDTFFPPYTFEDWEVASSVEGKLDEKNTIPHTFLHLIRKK
# assay-summary: Inhibition of Staphylococcus aureus DHFR expressed in Escherichia coli BL21 (DE3) using DHF as substrate preincubated for 10 mins followed by substrate addition measured for 10 mins in presence of NADPH by spectrophotometry
Keep in mind that pIC50 stands for -log10 of concentration in molar terms.

Challenge: What does the data say about its pIC50? Entry: `CC(C)c1cc(OCC2CCCC2)c(I)cc1Oc1cnc(N)nc1N`
Response given: 7.99

Challenge: What does the data say about its pIC50? Entry: `COc1cc(C(C)C)c(Oc2cnc(N)nc2N)cc1-c1ccc(C)cc1`
Response given: 7.41

Challenge: What does the data say about its pIC50? Entry: `COc1cc(C(C)C)c(Oc2cnc(N)nc2N)cc1-c1ccc(OC(F)(F)F)cc1`
Response given: 7.72

Challenge: What does the data say about its pIC50? Entry: `COc1cc(C(C)C)c(Oc2cnc(N)nc2N)cc1-c1cc(F)cc(F)c1`
Response given: 7.38

Challenge: What does the data say about its pIC50? Entry: `COc1cc(C(C)C)c(Oc2cnc(N)nc2N)cc1-c1cc(Cl)cc(Cl)c1`
Response given: 7.81

Challenge: What does the data say about its pIC50? Entry: `COc1cc(C(C)C)c(Oc2cnc(N)nc2N)cc1-c1ccc2c(c1)OCO2`
Response given: 7.46

Challenge: What does the data say about its pIC50? Entry: `CC(C)c1cc(OCC2CCC2)c(I)cc1Oc1cnc(N)nc1N`
Response given: 8.11

====

List of inhibition at 24 h, 100 µM values.
# assay-summary: Cytotoxicity against HEK293 cells assessed as inhibition rate of cell growth at 100 uM incubated for 24 hrs by CCK8 assay relative to control
# Format: toxicity, cell-based
# run-parameters: human
Response body: numeric value in %, unit text excluded.

[[record]]
compound = "CCOc1cc(C(C)C)c(Oc2cnc(N)nc2N)cc1I"
reported_result = 57.9

[[record]]
compound = "CCc1cc(Oc2cnc(N)nc2N)c(C(C)CC)cc1OC (configuration not stated)"
reported_result = 23.2

[[record]]
compound = "COc1cc(C(C)C)c(Oc2cnc(N)nc2N)cc1-c1cccc(C(F)(F)F)c1"
reported_result = 51.5

[[record]]
compound = "COc1cc(C(C)C)c(Oc2cnc(N)nc2N)cc1-c1ccc(Cl)c(Cl)c1"
reported_result = 41

[[record]]
compound = "COc1cc(C(C)C)c(Oc2cnc(N)nc2N)cc1-c1ccccc1Cl"
reported_result = 37.8


Challenge: What does the data say about its inhibition at 24 h, 100 µM? Entry: `COc1ccc(Oc2cnc(N)nc2N)cc1-c1ccc(OC(F)(F)F)cc1`
Response given: 39.4

Challenge: What does the data say about its inhibition at 24 h, 100 µM? Entry: `CC(C)c1cc(OCC2CC2)c(I)cc1Oc1cnc(N)nc1N`
Response given: 59.1

====

# assay-summary: Cytotoxicity against HEK293 cells assessed as inhibition rate of cell growth at 100 uM incubated for 24 hrs by CCK8 assay relative to control
# Assay type: toxicity, cell-based
# run-parameters: human
endpoint: inhibition at 24 h, 100 µM (%)
Response body: numeric value in %, unit text excluded.

Below, 5 compounds whose answers are already recorded.
[[record]]
compound = "COc1ccc(Oc2cnc(N)nc2N)cc1-c1ccc(C(F)(F)F)cc1"
endpoint = "inhibition at 24 h, 100 µM"
reported_result = 42.3

[[record]]
compound = "COc1cc(C(C)C)c(Oc2cnc(N)nc2N)cc1-c1ccc(C(F)(F)F)c(Cl)c1"
endpoint = "inhibition at 24 h, 100 µM"
reported_result = 42.1

[[record]]
compound = "CC(C)c1cc(OCC2CCCCC2)c(I)cc1Oc1cnc(N)nc1N"
endpoint = "inhibition at 24 h, 100 µM"
reported_result = 36.7

[[record]]
compound = "COc1cc(OC)cc(-c2cc(Oc3cnc(N)nc3N)c(C(C)C)cc2OC)c1"
endpoint = "inhibition at 24 h, 100 µM"
reported_result = 29.7

[[record]]
compound = "COc1cc(C(C)C)c(Oc2cnc(N)nc2N)cc1-c1cc(Cl)cc(Cl)c1"
endpoint = "inhibition at 24 h, 100 µM"
reported_result = 39.7


Challenge: What does the data say about its inhibition at 24 h, 100 µM? Entry: `COc1cc(C(C)C)c(Oc2cnc(N)nc2N)cc1-c1cccc(Cl)c1`
Response given: 29.3

Challenge: What does the data say about its inhibition at 24 h, 100 µM? Entry: CCC(C)Oc1cc(C(C)C)c(Oc2cnc(N)nc2N)cc1I (stereo not given)
Response given: 44.6

Challenge: What does the data say about its inhibition at 24 h, 100 µM? Entry: `COc1cc(C(C)C)c(Oc2cnc(N)nc2N)cc1-c1ccc(F)cc1`
Response given: 46.9

Challenge: What does the data say about its inhibition at 24 h, 100 µM? Entry: `COc1cc(C(C)C)c(Oc2cnc(N)nc2N)cc1-c1ccc2c(c1)OCCO2`
Response given: 19.6

Challenge: What does the data say about its inhibition at 24 h, 100 µM? Entry: `CC(C)CCOc1cc(C(C)C)c(Oc2cnc(N)nc2N)cc1I`
Response given: 64

Challenge: What does the data say about its inhibition at 24 h, 100 µM? Entry: `COc1cc(C(C)C)c(Oc2cnc(N)nc2N)cc1-c1cc(C(F)(F)F)cc(C(F)(F)F)c1`
Response given: 38.6

Challenge: What does the data say about its inhibition at 24 h, 100 µM? Entry: CCCC(C)Oc1cc(C(C)C)c(Oc2cnc(N)nc2N)cc1I (stereo not given)
Response given: 55.6

Challenge: What does the data say about its inhibition at 24 h, 100 µM? Entry: `CC(C)c1cc(OCCc2ccccc2)c(I)cc1Oc1cnc(N)nc1N`
Response given: 62

Challenge: What does the data say about its inhibition at 24 h, 100 µM? Entry: `COc1cc(C(C)C)c(Oc2cnc(N)nc2N)cc1-c1ccc(Cl)c(C(F)(F)F)c1`
Response given: 41

Challenge: What does the data say about its inhibition at 24 h, 100 µM? Entry: `CCCCOc1cc(C(C)C)c(Oc2cnc(N)nc2N)cc1-c1ccc(C(C)C)cc1`
Response given: 46.6

Just for reference, ChEMBL document CHEMBL5528082 is where these values come from.
